- target: p38 map kinase (Homo sapiens)
- Sequence (Q16539 whole entry): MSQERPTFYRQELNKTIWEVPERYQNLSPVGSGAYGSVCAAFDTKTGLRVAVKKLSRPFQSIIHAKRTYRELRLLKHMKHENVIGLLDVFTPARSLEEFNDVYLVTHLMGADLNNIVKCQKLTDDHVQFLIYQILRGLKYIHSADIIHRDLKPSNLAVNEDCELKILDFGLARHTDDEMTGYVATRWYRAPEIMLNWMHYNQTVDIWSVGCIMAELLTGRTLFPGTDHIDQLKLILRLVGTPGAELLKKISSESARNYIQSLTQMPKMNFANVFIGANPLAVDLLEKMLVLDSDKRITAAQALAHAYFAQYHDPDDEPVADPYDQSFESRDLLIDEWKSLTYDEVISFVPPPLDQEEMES
So basically, if IC50 comes in under 200 nM it's true (1), and if it's 200 nM or more it's false (0).

> print(dat)
                                   compound                         target  answer.label
1  O=C(c1ccccc1)c1ccc(=O)n2c1[nH]c1ccccc12 [Example 1]  p38 map kinase (Homo sapiens)     false (0)
2  O=C(c1ccc(F)cc1F)c1ccc(=O)n2c3c([nH]c12)CCCC3 [Example 38]  p38 map kinase (Homo sapiens)      true (1)
3  Cc1[nH]c2c(C(=O)c3ccccc3F)ccc(=O)n2c1C [Example 3]  p38 map kinase (Homo sapiens)     false (0)
4  Cc1[nH]c2c(C(=O)c3ccc(F)cc3)ccc(=O)n2c1C [Example 2]  p38 map kinase (Homo sapiens)     false (0)
5  O=C(c1ccccc1)c1ccc(=O)n2c3c([nH]c12)CCCC3 [Example 5]  p38 map kinase (Homo sapiens)      true (1)
